Subject Of Test: HLA-B*07:02
Experiment Description: thermal melting temperature (Tm) of peptide-HLA complex; higher = more thermostable pHLA complex;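 also: lysates heated 10 min at 37–73 °C, complexes pulled down with pan-HLA I antibody, peptide signal by DIA-MS relative to 37 °C, Tm where half the complex is unfolded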
Measurement Setup: C1R-B*07:02
In all, about 1,400 sequences were measured (“thermal melting temperature (Tm) of peptide-HLA complex”: median about 60, lowest 2% from about 45 on). Only a selection was taken, and the lowest values are over-represented in it overall.
Attribute Measured: thermal melting temperature

VIAPVRAVL | 59.2 °C
TPINKPPVL | 56 °C
IPRPEVQAL | 54.1 °C
SPKSPTAAL | 60.1 °C

thermal melting temperature for SPAEPSVYATL ?
62.8 °C

Entry to check: RPQLKGVVL
61.1 °C

Also need RPALPSTQQL , thanks.
57.6 °C

Try this sequence next: RPLPGALGV
59 °C
